test system: Escherichia coli ATCC 25922; assay: antibacterial MIC, microtitration broth method; type: cell-based; conditions: ATCC25922, 24 h, 37 °C

{"MOLECULE": "CCOc1ccc(NC(=O)OCC(O)CN2CCN(c3cccc(C(F)(F)F)c3)CC2)cc1 (centres unmarked)", "MIC": "> 508 µM"}
{"MOLECULE": "CCOc1cccc(NC(=O)OCC(O)CN2CCN(c3cccc(C(F)(F)F)c3)CC2)c1.Cl (centres unmarked)", "MIC": "> 508 µM"}
{"MOLECULE": "CCOc1ccc(NC(=O)OCC(O)CN2CCN(c3ccc(F)cc3)CC2)cc1 (centres unmarked)", "MIC": "> 564 µM"}
{"MOLECULE": "COc1ccccc1NC(=O)OCC(O)CN1CCN(c2cccc(C(F)(F)F)c2)CC1 (centres unmarked)", "MIC": "> 523 µM"}
{"MOLECULE": "COc1cccc(NC(=O)OCC(O)CN2CCN(c3cccc(C(F)(F)F)c3)CC2)c1 (centres unmarked)", "MIC": "> 523 µM"}
